test: Inhibition of amyloid beta (1 to 40) fibril formation at 10 uM after 8 days by thioflavin T fluorescent dye assay
endpoint label: inhibition (%)

{"columns": ["smiles", "unit text", "inhibition"],
 "data": [
  ["COc1ccc2c(c1)CN1c3ccc(OC)cc3CN2C1CCCCCCCn1cc(CNCCC(=O)Nc2ccc3cc4ccc(NC(C)=O)cc4nc3c2)nn1", "%", 50],
  ["C#CCNCCC(=O)Nc1ccc2cc3ccc(NC(C)=O)cc3nc2c1", "%", 50],
  ["COc1ccc2c(c1)CN1c3ccc(OC)cc3CN2C1CCCCCCCn1cc(COC(=O)Nc2ccc3cc4ccc(NC(C)=O)cc4nc3c2)nn1", "%", 50],
  ["CC(=O)Nc1ccc2cc3ccc(NC(=O)CN=[N+]=[N-])cc3nc2c1", "%", 50]
]}
